- Study System: ALPK1 (Homo sapiens)
- Sequence (Q96QP1 whole entry): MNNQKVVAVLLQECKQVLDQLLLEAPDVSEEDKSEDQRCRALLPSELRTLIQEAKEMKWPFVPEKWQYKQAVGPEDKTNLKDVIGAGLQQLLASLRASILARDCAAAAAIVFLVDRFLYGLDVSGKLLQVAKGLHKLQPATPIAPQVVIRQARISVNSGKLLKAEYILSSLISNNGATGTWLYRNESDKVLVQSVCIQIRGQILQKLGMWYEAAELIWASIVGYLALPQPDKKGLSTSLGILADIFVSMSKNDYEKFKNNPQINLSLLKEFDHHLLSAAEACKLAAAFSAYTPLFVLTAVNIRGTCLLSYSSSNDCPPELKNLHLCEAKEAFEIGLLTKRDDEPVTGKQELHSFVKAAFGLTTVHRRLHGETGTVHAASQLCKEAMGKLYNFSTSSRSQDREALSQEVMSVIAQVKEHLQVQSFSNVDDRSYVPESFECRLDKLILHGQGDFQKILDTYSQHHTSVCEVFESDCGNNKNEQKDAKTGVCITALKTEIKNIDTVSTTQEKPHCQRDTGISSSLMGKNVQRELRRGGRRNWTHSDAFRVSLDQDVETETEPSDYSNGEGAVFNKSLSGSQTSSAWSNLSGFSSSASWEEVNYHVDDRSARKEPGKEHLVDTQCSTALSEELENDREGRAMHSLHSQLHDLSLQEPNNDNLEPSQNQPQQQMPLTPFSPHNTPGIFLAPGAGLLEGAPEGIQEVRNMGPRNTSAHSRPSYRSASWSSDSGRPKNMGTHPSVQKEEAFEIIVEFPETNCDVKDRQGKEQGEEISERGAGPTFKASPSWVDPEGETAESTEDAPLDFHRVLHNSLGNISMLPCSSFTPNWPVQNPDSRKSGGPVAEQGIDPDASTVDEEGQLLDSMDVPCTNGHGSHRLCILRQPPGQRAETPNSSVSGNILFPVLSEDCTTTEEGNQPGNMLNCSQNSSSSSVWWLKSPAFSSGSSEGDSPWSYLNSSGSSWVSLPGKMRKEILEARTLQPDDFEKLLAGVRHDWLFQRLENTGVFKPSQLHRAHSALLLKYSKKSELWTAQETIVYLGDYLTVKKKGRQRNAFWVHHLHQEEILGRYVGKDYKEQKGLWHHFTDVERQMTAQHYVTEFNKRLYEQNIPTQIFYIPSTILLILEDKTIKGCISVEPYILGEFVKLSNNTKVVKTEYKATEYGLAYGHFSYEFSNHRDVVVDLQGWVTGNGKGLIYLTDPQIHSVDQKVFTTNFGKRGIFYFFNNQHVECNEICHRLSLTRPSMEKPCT
- Procedure Summary: IL8 secretion in HEK293 cells (IL8 ELISA) as indicator of ALPK1 activation
- Run Conditions: with 10% FBS, 4 hours
Quantity Name: IL8 secretion in HEK293 cells

The examples below pair each entry with its known result.
Compound	IL8 secretion in HEK293 cells
CO[C@@H]1[C@H](OC)[C@@H](COP(=O)(O)OP(=O)(O)O[C@@H]2O[C@H]([C@@H](COC(C)=O)OC(C)=O)[C@@H](OC(C)=O)[C@H](OC(C)=O)[C@@H]2OC(C)=O)O[C@H]1n1cnc2c(N)ncnc21	increased IL8 secretion
COC1C(OC)[C@@H](COP(=O)(O)OP(=O)(O)O[C@@H]2OC([C@H](O)CO)[C@@H](O)C(O)C2O)O[C@H]1n1cnc2c(N)ncnc21 (stereo partly drawn)	increased IL8 secretion
CC(=O)OC[C@@H](OC(C)=O)[C@H]1O[C@@H](OP(=O)(O)OP(=O)(O)OC[C@@]2(F)O[C@@H](n3cnc4c(N)ncnc43)[C@@H]3OC(C)(C)O[C@@H]32)[C@@H](OC(C)=O)[C@@H](OC(C)=O)[C@@H]1OC(C)=O	activate IL8 secretion
CC(=O)OC[C@H](F)[C@H]1O[C@@H](OP(=O)(O)OP(=O)(O)OC[C@H]2O[C@@H](n3cnc4c(N)ncnc43)[C@H](O)[C@@H]2O)[C@@H](OC(C)=O)[C@@H](OC(C)=O)[C@@H]1OC(C)=O	activate IL8 secretion
CC(=O)OC[C@@H](OC(C)=O)[C@H]1O[C@@H](OP(=O)(O)OP(=O)(O)OC[C@@]2(F)O[C@@H](n3cnc4c(N)ncnc43)[C@H](O)[C@@H]2O)[C@@H](OC(C)=O)[C@@H](OC(C)=O)[C@@H]1OC(C)=O	activate IL8 secretion

Lookup: Recorded IL8 secretion in HEK293 cells of Nc1ncnc2c1ncn2[C@@H]1O[C@H](COP(=O)(O)OP(=O)(O)O[C@@H]2OC([C@@H](O)CO)[C@@H](O)C(O)C2O)C(O)C1O (stereo partly drawn) , please.
Found: increased IL8 secretion

Lookup: Likewise for CC(=O)OC[C@H](OC(C)=O)[C@H]1O[C@@H](OP(=O)(O)OP(=O)(O)OC[C@H]2O[C@@H](n3cnc4c(N)ncnc43)[C@H](O)[C@@H]2O)[C@@H](OC(C)=O)[C@@H](OC(C)=O)[C@@H]1OC(C)=O ?
Found: increased IL8 secretion

Lookup: Also, Nc1ncnc2c1ncn2[C@@H]1O[C@H](COP(O)(=S)OP(=O)(O)O[C@@H]2OC([C@H](O)CO)[C@@H](O)C(O)C2O)C(O)C1O (stereo partly drawn) please.
Found: increased IL8 secretion

Lookup: Then this compound: CC(=O)OC[C@H]1O[C@@H](OP(=O)(O)OP(=O)(O)OC[C@H]2O[C@@H](n3cnc4c(N)ncnc43)[C@H](O)[C@@H]2O)[C@@H](OC(C)=O)[C@@H](OC(C)=O)[C@@H]1OC(C)=O
Found: increased IL8 secretion
